Ref: PubChem BioAssay (NCATS)

# METHOD_SUMMARY: Cell Viability - LYMP2-025 (AID 976);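 further: cells exposed to compound for 24 h at 37 °C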
# TEST_CONDITIONS: LYMP2-025 lymphoblastoid cell viability; series mostly up to 92.2 µM
Results filed as inconclusive are left out. The source made the active and inactive calls. The call rests on the fitted dose curve; in most records, active means well fitted cell-killing curve with a large enough effect; inconclusive means small, poorly fitted or top-dose-only effect; inactive means flat fitted curve, though single readings scatter.
ENDPOINT_LABEL: Potency

| STRUCTURE_STRING | Potency |
| --- | --- |
| CC(C)(C)c1cc(O)ccc1O | inactive |
| O=Cc1ccco1 | inactive |
| C[C@H]1CCC[C@H](O)CCCCCc2cc(O)cc(O)c2C(=O)O1 | inactive |
| ClC(Cl)(Cl)Cl | inactive |
| CC(C)CCON=O | inactive |

For `Clc1ccccc1Cl` the compound record lists Potency as inactive

For `O=C1C=CC(=O)C=C1` the compound record lists Potency as inactive
